test-details: in vivo
assay-setup: male, dog, in vivo, iv, 10 mg/kg
test-readout: Vd (L/kg)
Give the quantity in L/kg, number only.

Request the reported Vd associated with "Cc1cn(-c2cc(NC(=O)c3ccc(C)c(Nc4nccc(-c5cccnc5)n4)c3)cc(C(F)(F)F)c2)cn1" 1.16

---

test-details: in vivo
assay-setup: male, dog, in vivo, po, 10 mg/kg
test-readout: Tmax (h)
Give a bare numeral; the unit h is implied.

If you can, please state the reported Tmax value of "Cc1cn(-c2cc(NC(=O)c3ccc(C)c(Nc4nccc(-c5cccnc5)n4)c3)cc(C(F)(F)F)c2)cn1" . 5.6
